- target.system: peroxisome proliferator-activated receptor gamma (PPARγ) (Homo sapiens, UniProt P37231)
- Sequence (P37231 whole entry, species assumed): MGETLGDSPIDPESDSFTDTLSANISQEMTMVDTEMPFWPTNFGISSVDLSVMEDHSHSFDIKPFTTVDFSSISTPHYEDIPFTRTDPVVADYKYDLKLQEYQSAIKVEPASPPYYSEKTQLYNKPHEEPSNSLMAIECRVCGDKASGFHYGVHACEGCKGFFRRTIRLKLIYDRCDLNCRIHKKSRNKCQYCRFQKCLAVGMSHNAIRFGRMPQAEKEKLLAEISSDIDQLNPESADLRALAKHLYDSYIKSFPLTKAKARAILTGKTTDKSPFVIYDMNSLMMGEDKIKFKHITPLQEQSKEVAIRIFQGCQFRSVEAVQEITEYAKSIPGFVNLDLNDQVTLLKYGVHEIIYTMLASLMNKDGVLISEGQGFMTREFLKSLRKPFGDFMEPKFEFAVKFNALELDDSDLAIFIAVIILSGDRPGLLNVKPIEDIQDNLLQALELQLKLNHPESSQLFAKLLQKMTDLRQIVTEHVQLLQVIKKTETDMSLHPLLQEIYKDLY
- method.description: Competitive binding to PPARγ ([3H]rosiglitazone)
assay.endpoint: IC50 (µM)
Provide the reading as a plain figure in µM.

{"columns": ["molecule", "IC50 (µM)"],
 "data": [
  ["CC(C)CCC(=O)[C@]1(O)C(O)=C(C(=O)CC(C)C)C(=O)[C@H]1CCC(C)C [(−)-KDT501]", 30]
]}

We now examine a further molecule.
Exam item: So what does the record say about IC50 for CC(C)CCC(=O)[C@@]1(O)C(O)=C(C(=O)CC(C)C)C(=O)[C@@H]1CCC(C)C.[K] [(+)-KDT501, potassium salt] ?
Marked response: 8.4

###

- target.system: GPR120 (Homo sapiens, UniProt Q5NUL3)
- method.description: GPR120 activity, intracellular calcium response in CHO-K1/GPR120/Gα15 cells
- Assay type: cell-based
- condition: CHO-K1/GPR120/Gα15 cells; calcium response; read-out: GPR120 agonistic activity EC50
assay.endpoint: EC50 (µM)
Provide the reading as a plain figure in µM.

{"columns": ["input.smiles", "target.system", "observed.measurement"],
 "data": [
  ["CC/C=C\\C/C=C\\C/C=C\\C/C=C\\C/C=C\\CCCC(=O)O", "GPR120 (Homo sapiens, UniProt Q5NUL3)", 116]
]}

Exam item: So what does the record say about EC50 for `CC/C=C\C/C=C\C/C=C\C/C=C\C/C=C\C/C=C\CCC(=O)O` ?
Marked response: 35.3

###

- target.system: GPR120 (Homo sapiens, UniProt Q5NUL3)
- Sequence (Q5NUL3 1-361): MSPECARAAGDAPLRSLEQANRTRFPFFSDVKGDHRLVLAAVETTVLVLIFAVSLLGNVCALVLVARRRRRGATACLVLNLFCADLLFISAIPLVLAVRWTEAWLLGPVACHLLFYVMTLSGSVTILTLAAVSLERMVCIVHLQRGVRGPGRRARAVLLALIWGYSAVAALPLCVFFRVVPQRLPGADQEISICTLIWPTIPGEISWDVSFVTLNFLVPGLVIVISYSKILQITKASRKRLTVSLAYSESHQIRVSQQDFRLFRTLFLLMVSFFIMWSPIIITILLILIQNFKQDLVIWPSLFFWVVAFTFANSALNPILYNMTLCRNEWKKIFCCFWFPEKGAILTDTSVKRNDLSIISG
- method.description: GPR120 activity, intracellular calcium response in CHO-K1/GPR120/Gα15 cells
- Assay type: cell-based
assay.endpoint: EC50 (µM)
Provide the reading as a plain figure in µM.

Exam item: So what does the record say about EC50 for `CC/C=C\C/C=C\C/C=C\CCCCCCCC(=O)O` ?
Marked response: 36.1

###

- target.system: GPR120 (Homo sapiens, UniProt Q5NUL3)
- method.description: GPR120 activity, intracellular calcium response in CHO-K1/GPR120/Gα15 cells
- Assay type: cell-based
- condition: CHO-K1/GPR120/Gα15 cells; calcium response; unit inferred; read-out: GPR120 agonistic activity EC50
assay.endpoint: EC50 (µM)
Provide the reading as a plain figure in µM.

Exam item: So what does the record say about EC50 for CC(C)CCC(=O)[C@@]1(O)C(O)=C(C(=O)CC(C)C)C(=O)[C@@H]1CCC(C)C.[K] [(+)-KDT501, potassium salt] ?
Marked response: 30.3
